target: Recombinant Human TMPRSS2 (Homo sapiens, UniProt O15393); construct: human TMPRSS2 residues 106492, N-terminal 6x His-tag; 6x His-tag (N); purchased Cusabio CSB-YP023924HU; host or cells: yeast; assay: TMPRSS2 biochemical assay (Boc-Gln-Ala-Arg-AMC fluorogenic substrate); settings: read-out: IC50, inhibition in TMPRSS2 biochemical assay
Sequence (O15393 106-492 limits assumed): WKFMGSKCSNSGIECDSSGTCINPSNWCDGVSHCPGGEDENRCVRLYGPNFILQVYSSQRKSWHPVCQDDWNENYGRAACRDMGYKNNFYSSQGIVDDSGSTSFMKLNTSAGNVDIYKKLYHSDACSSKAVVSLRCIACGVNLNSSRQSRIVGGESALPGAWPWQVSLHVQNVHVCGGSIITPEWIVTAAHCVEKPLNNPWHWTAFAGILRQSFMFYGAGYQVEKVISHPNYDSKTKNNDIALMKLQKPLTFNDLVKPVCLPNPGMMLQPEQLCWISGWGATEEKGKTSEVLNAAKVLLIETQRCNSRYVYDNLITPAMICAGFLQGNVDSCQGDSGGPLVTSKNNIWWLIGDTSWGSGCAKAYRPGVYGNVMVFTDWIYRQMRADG
readoutType: IC50 (nM)
All answers are understood in nM, so give the number only.

Record CC(C)(C)NC(=O)N1CCN(C(=O)N2C(=O)C(CCCNC(=N)N)C2C(=O)O)CC1 (stereo not shown) [BMS-262084] . Reported IC50: 1.82

----------
target: Recombinant Human TMPRSS2 (Homo sapiens, UniProt O15393); construct: human TMPRSS2 residues 106492, N-terminal 6x His-tag; 6x His-tag (N); purchased Cusabio CSB-YP023924HU; host or cells: yeast; test: TMPRSS2 biochemical assay (Boc-Gln-Ala-Arg-AMC fluorogenic substrate); settings: second round of screening on the NCATS in-house library (dynamic h-score selection); read-out: IC50
Recorded pIC50, one value per entry.
Note: pIC50 values are expressed as the negative base-10 logarithm of concentration in M.

Nc1nn(-c2ccccc2)nc1C(=O)OCc1ccccc1Br [NCGC00102940-01] = 4.75
CC(=O)Nc1ccc(CN2C(=O)OC3(CCN(C(=O)c4cccc(C#N)c4)CC3)C2(C)c2ccccc2)cc1 (stereo not drawn) [NCGC00415676-01] = 4.50

Field: next compound
Record Nc1nn(-c2ccccc2)nc1C(=O)OCc1ccccc1 [NCGC00102837-01] . Reported pIC50: 4.75

----------
Target: Recombinant Human TMPRSS2 (Homo sapiens, UniProt O15393)
Construct: human TMPRSS2 residues 106492, N-terminal 6x His-tag; 6x His-tag (N); purchased Cusabio CSB-YP023924HU; host or cells: yeast
Assay: TMPRSS2 biochemical assay (Boc-Gln-Ala-Arg-AMC fluorogenic substrate)
Settings: first round of screening on the NCATS in-house library (docking score selection); read-out: IC50
Description: Inhibitors of TMPRSS2 were tested using a high throughput activity assay. […] After incubation at room temperature for 1 h, fluorescence was measured. […] Raw plate reads for each titration point were normalized relative to a positive control containing no enzyme (0% activity, full inhibition) and a negative control containing DMSO-only wells (100% activity, basal activity). […]
readoutType: pIC50
Note: pIC50 values are expressed as the negative base-10 logarithm of concentration in M.

Record O=C(OCC(O)CO)c1ccccc1Nc1ccnc2c(C(F)(F)F)cccc12 (stereo not shown) . Reported pIC50: 4.50

Record `Cc1cc(C(=O)Nc2cc(Oc3ccc4nc(NC(=O)C5CC5)cn4n3)ccc2C)n(C)n1` . Reported pIC50: 4.50

Record `CC(=O)Nc1cccc(-c2cc3c(ccn3C)c(C(=O)NCc3c(C)cc(C)[nH]c3=O)n2)c1` . Reported pIC50: 4.75

Record `Cc1cccc(-n2ncc3c(Nc4ccc(Oc5ccc(Cl)cc5)cc4)ncnc32)c1` . Reported pIC50: 4.90

----------
Recorded IC50, one value per entry.
test system: pseudovirus bearing S protein of SARS-CoV-1; experiment: organism not typed; assay type: cell-based; conditions: Calu-3, read-out: IC50 estimate, pseudovirus cell entry SARS-1-S
All answers are understood in nM, so give the number only.

CC(C)(C)NC(=O)N1CCN(C(=O)N2C(=O)C(CCCNC(=N)N)C2C(=O)O)CC1 (centres unmarked) = 82

Field: next molecule
Record `CN(C)C(=O)COC(=O)Cc1ccc(OC(=O)c2ccc(NC(=N)N)cc2)cc1` . Reported IC50: 193

----------
target: Recombinant Human TMPRSS2 (Homo sapiens, UniProt O15393); construct: human TMPRSS2 residues 106492, N-terminal 6x His-tag; 6x His-tag (N); purchased Cusabio CSB-YP023924HU; host or cells: yeast; experiment: TMPRSS2 biochemical assay (Boc-Gln-Ala-Arg-AMC fluorogenic substrate); conditions: first round of screening on the NCATS in-house library (docking score selection); read-out: IC50
readoutType: IC50 (µM)
All answers are understood in µM, so give the number only.

CC(C)c1ccc2oc(-c3ccc(NC(=O)c4cc5ccccc5o4)cc3)nc2c1 = 22.4
COC(=O)Cc1c(C)c2ccc3c(c2oc1=O)CN(Cc1ccc(C)cc1)CO3 = 15.8
CCOC(=O)c1cccc(Nc2ccc3cc(S(=O)(=O)N4CCCCC4)ccc3n2)c1 = 14.1
COC(=O)c1ccccc1NC(=O)CCCS(=O)(=O)c1nc(-c2ccccc2OC)cc(C(F)(F)F)n1 = 14.1
COC(=O)c1ccc(OC)c(Cn2c(=O)n(-c3cccc(Cl)c3)c(=O)c3c2c2cc(C)ccc2n3C)c1 = 31.6

Record `CCCCC(=O)Oc1ccc2oc(-c3ccc(OC)cc3)cc(=O)c2c1` . Reported IC50: 12.6

Record `O=C(NCc1ccc(-c2cnc3c(Oc4ccccc4)nccn23)cc1)c1ccn[nH]1` . Reported IC50: 35.5

Record `Cn1ccc2c(C(=O)NCCc3cnc[nH]3)nc(-c3cnn(Cc4ccccc4)c3)cc21` . Reported IC50: 35.5

Record `Nc1n[nH]c(CNc2cc(-c3ccc(F)cc3)nc3ccnn23)n1` . Reported IC50: 19.9

Record `CC(=O)Nc1cccc(-c2nc(-c3c(C)noc3C)cc3c2cc(-c2ccccc2)n3C)c1` . Reported IC50: 8.91

Record `CCOC(=O)c1c(-c2ccc(OC)cc2)oc2ccc(OCc3ccc(F)cc3F)cc12` . Reported IC50: 31.6

Record `COc1ccc(-c2cc(C(=O)Oc3ccc(C)c(C)c3)c3ccccc3n2)cc1` . Reported IC50: 15.8

Record `Fc1cc(F)cc(Cc2nc3nccc(-c4cc5ccccc5o4)n3n2)c1` . Reported IC50: 12.6

Record `Cn1nnc(-c2ccc(-c3ccc(N4C[C@H](COP(=O)(O)O)OC4=O)cc3F)cn2)n1` . Reported IC50: 35.5

Record `COC(=O)CNC(=O)c1nc(-c2cccc(C(F)(F)F)c2)c2ccccn12` . Reported IC50: 15.8

----------
Recorded IC50, one value per entry.
Molecular target: Recombinant Human TMPRSS2 (Homo sapiens, UniProt O15393)
Construct: human TMPRSS2 residues 106492, N-terminal 6x His-tag; 6x His-tag (N); purchased Cusabio CSB-YP023924HU; host or cells: yeast
Assay: TMPRSS2 biochemical assay (Boc-Gln-Ala-Arg-AMC fluorogenic substrate)
Conditions: second round of screening on the NCATS in-house library (dynamic h-score selection); read-out: IC50
Method: Inhibitors of TMPRSS2 were tested using a high throughput activity assay. […] After incubation at room temperature for 1 h, fluorescence was measured. […] Raw plate reads for each titration point were normalized relative to a positive control containing no enzyme (0% activity, full inhibition) and a negative control containing DMSO-only wells (100% activity, basal activity). […]
All answers are understood in µM, so give the number only.

Some solved cases for reference:
COc1cccc(COC(=O)c2ccc(-c3nnn(Cc4ccccc4)n3)cc2)c1 [NCGC00102929-01] = 17.8
Cc1ccc(C(=O)Oc2ccc(C(O)CNC(C)(C)C)cc2OC(=O)c2ccc(C)cc2)cc1 (stereo not shown) [NCGC00253593-01] = 14.1
Cc1cc(-c2cc3c(nc2-c2ccccc2)nc(C(=O)NCCN(C)C)n3C)ccn1 [NCGC00417822-01] = 19.9

Field: next compound
Record O=C(OCC1CCCO1)c1ccc2c(c1)N(Cc1ccc(F)cc1)C(=O)c1ccccc1S2(=O)=O (stereo not shown) [NCGC00127812-01] . Reported IC50: 15.8

----------
Recorded pIC50, one value per entry.
tested on: pseudovirus bearing S protein of HCoV-229E; test: organism not typed; type: cell-based; conditions: Calu-3, read-out: IC50 estimate, pseudovirus cell entry 229E-S
Note: pIC50 values are expressed as the negative base-10 logarithm of concentration in M.

Entry CC(C)(C)NC(=O)N1CCN(C(=O)N2C(=O)C(CCCNC(=N)N)C2C(=O)O)CC1 (centres unmarked) ; assay system pseudovirus bearing S protein of HCoV-229E; pIC50 recorded at 6.00

Entry `CN(C)C(=O)COC(=O)Cc1ccc(OC(=O)c2ccc(NC(=N)N)cc2)cc1` ; assay system pseudovirus bearing S protein of HCoV-229E; pIC50 recorded at 5.70

----------
Molecular target: Recombinant Human TMPRSS2 (Homo sapiens, UniProt O15393)
Construct: human TMPRSS2 residues 106492, N-terminal 6x His-tag; 6x His-tag (N); purchased Cusabio CSB-YP023924HU; host or cells: yeast
Assay: TMPRSS2 biochemical assay (Boc-Gln-Ala-Arg-AMC fluorogenic substrate)
Conditions: first round of screening on the NCATS in-house library (docking score selection); read-out: IC50
Procedure: Inhibitors of TMPRSS2 were tested using a high throughput activity assay. […] After incubation at room temperature for 1 h, fluorescence was measured. […] Raw plate reads for each titration point were normalized relative to a positive control containing no enzyme (0% activity, full inhibition) and a negative control containing DMSO-only wells (100% activity, basal activity). […]
Recorded pIC50, one value per entry.
Note: pIC50 values are expressed as the negative base-10 logarithm of concentration in M.

Some solved cases for reference:
OCCn1cc(-c2cnc3nnn(Cc4ccc5ncccc5c4)c3n2)cn1 [NCGC00263161-11] = 4.70
COC(=O)c1ccc(Nc2nc(-c3ccc(C)cc3)nc3ccccc23)cc1 [NCGC00099825-01] = 4.75
CCOc1ccc(-n2nc(CO)c(C(=O)NCC(c3ccccc3)c3ccccc3)n2)cc1 [NCGC00117127-01] = 4.65

Record Cc1cc(C)c(CNC(=O)c2nc(-c3cccc(C(F)(F)F)c3)cc3[nH]ccc23)c(=O)[nH]1 [NCGC00411596-01] . Reported pIC50: 5.05
